Reported IC50 values for the following compounds.
- testSystem: HLA-DR7 molecule (DRB1*0701) (Homo sapiens, UniProt P01903+P01911, A100R/A102G/A103Q/D57E/D86V/E43K/F76Y/K127E/L162R/M171V/P40G/Q125H/Q99D/R33Q/R42Y/R54Q/S133A/S66F/T210M/V115G/Y107V/Y59L/Y89S)
- experimentDescription: biochemical
- Assay type: binding
- Method: The incubation conditions are specific to each HLA-DR molecule (incubation time, pH, reagent R1, concentration of HLA-DR or of peptide). […] The HLA-DR molecules were purified from various homozygous EBV lines by immunoaffinity. The method described in Southwood et al. (24) can in particular be used. Their origin and the various alleles which characterize them are described in table IV. […]
Residues, ends and D or L forms follow the SMILES beside them.

compound | readoutUnits | qualifierOperator | IC50
CC[C@H](C)[C@H](NC(=O)CNC(=O)[C@H](CC(C)C)NC(=O)[C@@H](NC(=O)CNC(=O)[C@H](CCSC)NC(=O)[C@H](CC(C)C)NC(=O)[C@H](CC(C)C)NC(=O)[C@H](CC(=O)O)NC(=O)[C@H](CCC(=O)O)NC(=O)[C@H](CC(C)C)NC(=O)[C@@H](NC(=O)[C@@H](N)CCCNC(=N)N)[C@@H](C)O)[C@@H](C)O)C(=O)N[C@H](C(=O)N[C@@H](CS)C(=O)O)C(C)C [E7 77-91, R T L E D L L M G T L G I V C] | nM | = | 55
CC[C@H](C)[C@H](NC(=O)[C@H](CS)NC(=O)[C@H](CCCNC(=N)N)NC(=O)[C@@H](NC(=O)[C@H](CC(C)C)NC(=O)[C@H](CC(C)C)NC(=O)[C@H](CC(=O)O)NC(=O)[C@H](CS)NC(=O)[C@H](CC(C)C)NC(=O)[C@@H]1CCCN1C(=O)[C@H](CCCCN)NC(=O)[C@H](CC(N)=O)NC(=O)[C@H](Cc1ccc(O)cc1)NC(=O)[C@H](CCC(N)=O)NC(=O)[C@@H](N)CCC(N)=O)[C@@H](C)CC)C(=O)O [E6 97-111, Q Q Y N K P L C D L L I R C I] (H-QQYNKPLCDLLIRCI-OH) | nM | > | 10000
